Examples of molecules with documented α-human koff follow.
Target: T1, human α-CGRP (Homo sapiens, UniProt P06881)
T1 construct: 1-37 (WT); purchased GenScript Corporation or Global Peptide Services
T1 sequence (P06881 83-119 limits assumed): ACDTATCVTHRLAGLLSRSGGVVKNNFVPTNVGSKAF
Assay: Biacore SPR affinity of Fab fragments to N-biotinylated human α-CGRP on SA chip
Assay type: binding
Conditions: 37° C., screening mode except underlined values
Give your result in s⁻¹ as a bare value.

Previously resolved entries follow.
M47: G1 variant; L1 R28N; L2 G50A L56T; H2 E54K A57N S58G; HC-FW3 L99T A100V (antibody, V domains shown) VH: EVQLVESGGGLVQPGGSLRLSCAASGFTFSNYWISWVRQAPGKGLEWVAEIRSKSDNGATHYAEAVKGRFTISRDNAKNSLYLQMNSLRAEDTAVYYCTVYFDYGLAIQNYWGQGTLVTVSS VL: EIVLTQSPATLSLSPGERATLSCKASKNVTTYVSWYQQKPGQAPRLLIYAASNRYTGIPARFSGSGSGTDFTLTISSLEPEDFAVYYCSQSYNYPYTFGQGTKLEIK = 0.000332
M59: G1 variant; L1 R28N T30D; L2 L56S; H2 E54K A57N S58N H61F; HC-FW3 L99T A100V (antibody, V domains shown) VH: EVQLVESGGGLVQPGGSLRLSCAASGFTFSNYWISWVRQAPGKGLEWVAEIRSKSDNNATFYAEAVKGRFTISRDNAKNSLYLQMNSLRAEDTAVYYCTVYFDYGLAIQNYWGQGTLVTVSS VL: EIVLTQSPATLSLSPGERATLSCKASKNVDTYVSWYQQKPGQAPRLLIYGASNRYSGIPARFSGSGSGTDFTLTISSLEPEDFAVYYCSQSYNYPYTFGQGTKLEIK = 0.000524
M43: G1 variant; L1 R28N; L2 G50A L56T; H2 E54K A57N S58C; HC-FW3 L99T A100V (antibody, V domains shown) VH: EVQLVESGGGLVQPGGSLRLSCAASGFTFSNYWISWVRQAPGKGLEWVAEIRSKSDNCATHYAEAVKGRFTISRDNAKNSLYLQMNSLRAEDTAVYYCTVYFDYGLAIQNYWGQGTLVTVSS VL: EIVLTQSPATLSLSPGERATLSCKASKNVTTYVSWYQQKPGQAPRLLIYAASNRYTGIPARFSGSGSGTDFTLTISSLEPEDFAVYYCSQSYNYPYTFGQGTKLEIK = 0.000263

Now examine the next entry.
### Prompt Give the measured α-human koff of M34: G1 variant; L1 R28N T30G; H2 E54K A57N S58T; HC-FW3 L99T A100V (antibody, V domains shown) VH: EVQLVESGGGLVQPGGSLRLSCAASGFTFSNYWISWVRQAPGKGLEWVAEIRSKSDNTATHYAEAVKGRFTISRDNAKNSLYLQMNSLRAEDTAVYYCTVYFDYGLAIQNYWGQGTLVTVSS VL: EIVLTQSPATLSLSPGERATLSCKASKNVGTYVSWYQQKPGQAPRLLIYGASNRYLGIPARFSGSGSGTDFTLTISSLEPEDFAVYYCSQSYNYPYTFGQGTKLEIK .
### Response 0.000646
